Hey, just so you know, these numbers are from PubChem BioAssay (EPA / NIEHS).

- experiment_description: CCTE_Shafer_MEA_dev_active_electrodes_number: CCTE's Neural Network Formation Assay for Number of Active Electrodes, Shafer Lab (AID 2284040);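 further: potency for loss of active electrodes versus DMSO so lower counts are hits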
Records with an inconclusive call do not appear. Calls of active or inactive are those of the source. How the source made its calls: active means hit-call score of the fitted dose curve at least 0.9, where 1 is the maximum; inconclusive means response in the unintended direction; inactive means score below 0.9.
List of AC50 values.

{"columns": ["compound", "AC50"],
 "data": [
  ["CN(C)C(=S)SSC(=S)N(C)C", "0.011 µM (active)"],
  ["Cc1c(F)c(F)c(COC(=O)C2C(/C=C(\\Cl)C(F)(F)F)C2(C)C)c(F)c1F (stereo not drawn)", "10 µM (active)"]
]}

// next entry
Qu. Look up AC50: CCCCOC(=O)c1ccccc1C(=O)OCCCC
Ans. 75.1 µM (active)

----------
- experiment_description: BSK_3C_Proliferation: Cell Proliferation Assessment in the BioMAP Diversity Plus: 3C Assay (AID 2283006)
- run_conditions: primary human endothelial cells (HUVEC)
Activity calls are given as the source filed them. How the source made its calls: active means hit-call score of the fitted dose curve at least 0.9, where 1 is the maximum; inactive means score below 0.9.
Give one outcome, nothing more. List: active, inactive

{"columns": ["compound", "assigned_class"],
 "data": [
  ["CCCCC(CC)COC(=O)c1ccccc1C(=O)OCC(CC)CCCC (centres undefined)", "active"]
]}

Qu. Called result for CCCCNC(=O)n1c(NC(=O)OC)nc2ccccc21
Ans. active

Qu. Called result for CCOc1cc(Oc2ccc(C(F)(F)F)cc2Cl)ccc1[N+](=O)[O-]
Ans. active

Qu. Called result for CNC(=S)S
Ans. active

Qu. Called result for Cc1cc(Cl)ccc1OCC(=O)O
Ans. inactive

Qu. Called result for OC(c1ccc(Cl)cc1)(c1cncnc1)c1ccccc1Cl (centres undefined)
Ans. active

Qu. Called result for Cc1ccc(-c2c(Cl)nc(C#N)n2S(=O)(=O)N(C)C)cc1
Ans. active

----------
- Read-out: xenobiotic metabolism (CYP1A2), CYP1A2 (gene 1544)
- experiment_description: CLD_CYP1A2_6hr: CellzDirect (CLD) Gene Expression Assay for xenobiotic metabolism (CYP1A2) at 6 hours (AID 2283663)
Records with an inconclusive call do not appear. The source made the active and inactive calls. The calls were made as follows: active = hit-call score of the fitted dose curve at least 0.9, where 1 is the maximum; inconclusive = response in the unintended direction; inactive = score below 0.9.
Give one outcome, nothing more. List: active, inactive

Some entries whose results are on file:
{"columns": ["molecule", "assigned_class"],
 "data": [
  ["COc1ccc(C(c2ccc(OC)cc2)C(Cl)(Cl)Cl)cc1", "active"],
  ["CC1=C(C(=O)Nc2ccccc2)SCCO1", "active"],
  ["O=C(O)COc1nc(Cl)c(Cl)cc1Cl", "inactive"]
]}

Qu. Called result for COc1cnc(OC)n2nc(NS(=O)(=O)c3c(OCC(F)F)cccc3C(F)(F)F)nc12
Ans. active

Qu. Called result for COc1nc(NC(C)C)nc(NC(C)C)n1
Ans. inactive

Qu. Called result for COP(N)(=O)SC (configuration not stated)
Ans. inactive

Qu. Called result for CNC(=O)ON=CC(C)(C)SC
Ans. inactive

Qu. Called result for CCOC(=O)C(Cl)Cc1cc(-n2nc(C)n(C(F)F)c2=O)c(F)cc1Cl (configuration not stated)
Ans. inactive

Qu. Called result for CCOP(=S)(OCC)SCn1c(=O)oc2cc(Cl)ccc21
Ans. inactive

----------
- study_target: Norway rat Vesicular Monoamine Transporter (VMAT2), neurotransmitter transporter, Slc18a2 (gene 25549) (UniProt Q01827)
- Sequence (Q01827 whole entry, looked up): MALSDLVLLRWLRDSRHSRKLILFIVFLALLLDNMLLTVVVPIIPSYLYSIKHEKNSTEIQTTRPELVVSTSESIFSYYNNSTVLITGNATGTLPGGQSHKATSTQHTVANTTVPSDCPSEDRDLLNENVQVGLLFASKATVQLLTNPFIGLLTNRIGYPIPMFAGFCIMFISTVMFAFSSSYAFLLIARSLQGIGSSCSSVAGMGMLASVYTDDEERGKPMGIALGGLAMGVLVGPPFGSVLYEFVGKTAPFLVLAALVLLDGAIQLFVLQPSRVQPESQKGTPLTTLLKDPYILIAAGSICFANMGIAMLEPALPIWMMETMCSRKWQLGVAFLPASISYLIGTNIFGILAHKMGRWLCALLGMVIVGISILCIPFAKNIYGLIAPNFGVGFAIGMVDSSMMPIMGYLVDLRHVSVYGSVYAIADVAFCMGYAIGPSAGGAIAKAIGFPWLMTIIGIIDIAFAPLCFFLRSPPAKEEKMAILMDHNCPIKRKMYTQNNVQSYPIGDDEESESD
- experiment_description: NVS_TR_rVMAT2: NovaScreen (NVS) Transporter Assay for Norway rat Vesicular Monoamine Transporter (VMAT2), neurotransmitter transporter (AID 2283376);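 further: actives lower the bound radioligand signal below the DMSO level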
Records with an inconclusive call do not appear. Active and inactive are the calls of the source. The calls were made as follows: active = hit-call score of the fitted dose curve at least 0.9, where 1 is the maximum; inconclusive = response in the unintended direction; inactive = score below 0.9.
Give one outcome, nothing more. List: active, inactive

{"columns": ["compound", "assigned_class"],
 "data": [
  ["CC1COC(Cn2cncn2)(c2ccc(Oc3ccc(Cl)cc3)cc2Cl)O1 (centres undefined)", "inactive"]
]}

Qu. Called result for O=C(Nc1ccccc1)Nc1ccnc(Cl)c1
Ans. active

Qu. Called result for CCOC(=O)C(Cl)Cc1cc(-n2nc(C)n(C(F)F)c2=O)c(F)cc1Cl (centres undefined)
Ans. inactive

Qu. Called result for CCCCC(CC)COC(=O)c1ccccc1C(=O)OCC(CC)CCCC (centres undefined)
Ans. inactive

----------
- experiment_description: CCTE_Shafer_MEA_dev_burst_duration_mean: CCTE's Neural Network Formation Assay for Mean Burst Duration, Shafer Lab (AID 2284045)
Active and inactive are the calls of the source. Rule for the calls: active = hit-call score of the fitted dose curve at least 0.9, where 1 is the maximum; inactive = score below 0.9.
Give one outcome, nothing more. List: Y for active, N for inactive

Some entries whose results are on file:
{"columns": ["compound", "assigned_class"],
 "data": [
  ["COP(N)(=O)SC (stereo not drawn)", "N"],
  ["CCCCNC(=O)n1c(NC(=O)OC)nc2ccccc21", "N"],
  ["COc1ccc(C(c2ccc(OC)cc2)C(Cl)(Cl)Cl)cc1", "N"]
]}

Qu. Called result for C=CCC1=C(C)C(OC(=O)C2C(C=C(C)C)C2(C)C)CC1=O (stereo not drawn)
Ans. N

Qu. Called result for CCOC(=O)CC(SP(=S)(OC)OC)C(=O)OCC (stereo not drawn)
Ans. N

Qu. Called result for CN(C)C(=S)SSC(=S)N(C)C
Ans. Y

Qu. Called result for COP(=S)(OC)Oc1nc(Cl)c(Cl)cc1Cl
Ans. N

Qu. Called result for CCCCOC(=O)c1ccccc1C(=O)OCCCC
Ans. N

----------
- study_target: rat Monoamine Oxidase, MAO-B, Central (MAOBC), Maob (gene 25750) (UniProt P19643)
- Sequence (P19643 whole entry, looked up): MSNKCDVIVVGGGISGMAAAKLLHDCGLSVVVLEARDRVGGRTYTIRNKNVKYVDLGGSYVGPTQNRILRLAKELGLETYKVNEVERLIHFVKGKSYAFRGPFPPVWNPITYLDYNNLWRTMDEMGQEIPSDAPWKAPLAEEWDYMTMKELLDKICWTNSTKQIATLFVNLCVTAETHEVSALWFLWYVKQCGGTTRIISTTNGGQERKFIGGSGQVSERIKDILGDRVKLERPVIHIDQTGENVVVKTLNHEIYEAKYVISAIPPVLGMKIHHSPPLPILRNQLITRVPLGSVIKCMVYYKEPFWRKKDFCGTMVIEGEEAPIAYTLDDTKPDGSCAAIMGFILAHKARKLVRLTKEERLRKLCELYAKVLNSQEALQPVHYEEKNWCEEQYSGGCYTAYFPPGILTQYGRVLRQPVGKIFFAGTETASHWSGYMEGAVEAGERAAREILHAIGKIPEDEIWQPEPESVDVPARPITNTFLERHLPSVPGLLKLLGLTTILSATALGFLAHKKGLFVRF
- experiment_description: NVS_ENZ_rMAOBC: NovaScreen (NVS) Enzymatic Assay for rat Monoamine Oxidase, MAO-B, Central (MAOBC) (AID 2283238)
Records with an inconclusive call do not appear. Activity calls are given as the source filed them. The calls were made as follows: active = hit-call score of the fitted dose curve at least 0.9, where 1 is the maximum; inconclusive = response in the unintended direction; inactive = score below 0.9.
reported_endpoint: AC50

{"columns": ["compound", "result"],
 "data": [
  ["COc1nc(NC(C)C)nc(NC(C)C)n1", "1.29 µM (active)"],
  ["COc1ccc(C(c2ccc(OC)cc2)C(Cl)(Cl)Cl)cc1", "25 µM (active)"],
  ["CON(C)C(=O)Nc1ccc(Cl)c(Cl)c1", "16.1 µM (active) [middle of 4 runs]"],
  ["CCCCNC(=O)OCC#CI", "inactive"],
  ["C#CCOS(=O)OC1CCCCC1Oc1ccc(C(C)(C)C)cc1 (stereo unspecified)", "13.3 µM (active)"]
]}

// next entry
Qu. Look up AC50: O=C(Nc1ccccc1)Nc1ccnc(Cl)c1
Ans. inactive

----------
- Read-out: Plasminogen activator inhibitor-1 (PAI1), SERPINE1 (gene 5054)
- experiment_description: BSK_hDFCGF_PAI1: BioMAP Diversity Plus: hDFCGF Assay for Plasminogen activator inhibitor-1 (PAI1) Biomarker Activity (AID 2283066)
- run_conditions: primary human foreskin fibroblasts; actives raise or lower the signal
Calls of active or inactive are those of the source. The calls were made as follows: active = hit-call score of the fitted dose curve at least 0.9, where 1 is the maximum; inactive = score below 0.9.
reported_endpoint: AC50

Answered cases to consult:
{"columns": ["compound", "AC50"],
 "data": [
  ["CCOP(=S)(OCC)SCn1c(=O)oc2cc(Cl)ccc21", "13.8 µM (active)"],
  ["CCCCNC(=O)n1c(NC(=O)OC)nc2ccccc21", "inactive"],
  ["COC(=O)C(C)Oc1ccc(Oc2ccc(Cl)cc2Cl)cc1 (configuration not stated)", "inactive"],
  ["COC(=O)c1ccccc1C(=O)OC", "inactive"],
  ["CCNc1nc(Cl)nc(NC(C)C)n1", "inactive"],
  ["Cc1c(F)c(F)c(COC(=O)C2C(/C=C(\\Cl)C(F)(F)F)C2(C)C)c(F)c1F (configuration not stated)", "inactive"],
  ["CO/C=C(/C(=O)OC)c1ccccc1Oc1cc(Oc2ccccc2C#N)ncn1", "inactive"],
  ["COP(N)(=O)SC (configuration not stated)", "inactive"]
]}

Qu. Look up AC50: CCCCC(CC)COC(=O)c1ccccc1C(=O)OCC(CC)CCCC (configuration not stated)
Ans. inactive

Qu. Look up AC50: CCc1nn(C)c(C(=O)NCc2ccc(C(C)(C)C)cc2)c1Cl
Ans. 15.5 µM (active)

Qu. Look up AC50: CNC(=O)ON=CC(C)(C)SC
Ans. inactive

Qu. Look up AC50: OC(c1ccc(Cl)cc1)(c1cncnc1)c1ccccc1Cl (configuration not stated)
Ans. 16.6 µM (active)

----------
- Read-out: Monocyte Chemoattractant Protein-1 (MCP1), CCL2 (gene 6347)
- experiment_description: BSK_4H_MCP1: BioMAP Diversity Plus: 4H Assay for Monocyte Chemoattractant Protein-1 (MCP1) Biomarker Activity (AID 2283018)
- run_conditions: primary human endothelial cells (HUVEC); actives raise or lower the signal
Calls of active or inactive are those of the source. The calls were made as follows: active = hit-call score of the fitted dose curve at least 0.9, where 1 is the maximum; inactive = score below 0.9.
reported_endpoint: AC50

Answered cases to consult:
{"columns": ["molecule", "result"],
 "data": [
  ["O=C(O)c1nc(Cl)ccc1Cl", "inactive"],
  ["OC(c1ccc(Cl)cc1)(c1cncnc1)c1ccccc1Cl (configuration not stated)", "16.6 µM (active)"],
  ["COC(=O)c1ccccc1C(=O)OC", "inactive"],
  ["COc1cnc(OC)n2nc(NS(=O)(=O)c3c(OCC(F)F)cccc3C(F)(F)F)nc12", "inactive"],
  ["CCCCNC(=O)n1c(NC(=O)OC)nc2ccccc21", "inactive"],
  ["COc1nc(NC(C)C)nc(NC(C)C)n1", "inactive"],
  ["COC(=O)N(OC)c1ccccc1COc1ccn(-c2ccc(Cl)cc2)n1", "7.63 µM (active)"],
  ["CC(C)Oc1cc(-n2nc(C(C)(C)C)oc2=O)c(Cl)cc1Cl", "25.8 µM (active)"],
  ["Cc1ccc(-c2c(Cl)nc(C#N)n2S(=O)(=O)N(C)C)cc1", "20 µM (active)"],
  ["CC1=C(C(=O)Nc2ccccc2)SCCO1", "inactive"]
]}

Qu. Look up AC50: CCOc1cc(Oc2ccc(C(F)(F)F)cc2Cl)ccc1[N+](=O)[O-]
Ans. 11.5 µM (active)

Qu. Look up AC50: C#CCOS(=O)OC1CCCCC1Oc1ccc(C(C)(C)C)cc1 (configuration not stated)
Ans. 10.1 µM (active)
